tested on: Mus musculus; assay: Average survival time of treated /control mice*100 was determined at a daily dose of 5 mg/kg; assay type: functional
ENDPOINT_NAME: T/C (%)
Give bare numbers, in %.

# COMPOUND, T/C / %
rows = [
    ("CS(=O)(=O)N(CCCl)N(C(=O)NCCCCl)S(C)(=O)=O", 111),
]

Please give T/C for each item listed below.
1. CCOC(=O)CNC(=O)N(N(CCCl)S(C)(=O)=O)S(C)(=O)=O
2. CCOC(=O)C(C)NC(=O)N(N(CCCl)S(C)(=O)=O)S(C)(=O)=O (stereo unspecified)
3. C=CCNC(=O)N(N(CCCl)S(C)(=O)=O)S(C)(=O)=O
4. CCOC(=O)C(Cc1ccccc1)NC(=O)N(N(CCCl)S(C)(=O)=O)S(C)(=O)=O (stereo unspecified)
5. CNC(=O)N(N(CCCl)S(C)(=O)=O)S(C)(=O)=O

1: 151; 2: 170; 3: 184; 4: 147; 5: 234

* * *

system: Mus musculus; experiment: %60 day survivors were determined for the compound as the mouse […] at dose 10 mg/kg; assay type: functional
ENDPOINT_NAME: Survivors (%)
Answers are plain numbers, in %.

# MOLECULE, Survivors, %
records = [
    ("CS(=O)(=O)N(CCCl)N(C(=O)NCCCl)S(C)(=O)=O", 100),
    ("CNC(=O)N(N(CCCl)S(C)(=O)=O)S(C)(=O)=O", 100),
    ("C=CCNC(=O)N(N(CCCl)S(C)(=O)=O)S(C)(=O)=O", 40),
    ("CCOC(=O)CNC(=O)N(N(CCCl)S(C)(=O)=O)S(C)(=O)=O", 20),
]

Note Survivors for the molecule shown: CCOC(=O)C(C)NC(=O)N(N(CCCl)S(C)(=O)=O)S(C)(=O)=O (stereo not given) 20

* * *

Could you please report measured Change for the items listed next?
system: Mus musculus; assay: Average percent change in body weight from onset to termination of therapy at dose 15(mg/kg); assay type: functional
Answers are plain numbers, in %.

# MOLECULE, ENDPOINT_NAME, OBS_VALUE
records = [
    ("CCOC(=O)C(Cc1ccccc1)NC(=O)N(N(CCCl)S(C)(=O)=O)S(C)(=O)=O (configuration not stated)", "Change", -1.9),
    ("CS(=O)(=O)N(CCCl)N(C(=O)NCCCCl)S(C)(=O)=O", "Change", -8.8),
    ("CS(=O)(=O)N(CCCl)N(C(=O)NCCCl)S(C)(=O)=O", "Change", -4),
    ("CCOC(=O)CNC(=O)N(N(CCCl)S(C)(=O)=O)S(C)(=O)=O", "Change", -0.5),
    ("CCOC(=O)C(C)NC(=O)N(N(CCCl)S(C)(=O)=O)S(C)(=O)=O (configuration not stated)", "Change", -0.5),
    ("CNC(=O)N(N(CCCl)S(C)(=O)=O)S(C)(=O)=O", "Change", -2.1),
]

Recall and state the measured Change for `C=CCNC(=O)N(N(CCCl)S(C)(=O)=O)S(C)(=O)=O` . -2.9
